# credit: ChEMBL document CHEMBL4765239

Parameter: solubility at 0.5 h. Scope: all listed entries.
# procedureDetails: Solubility of compound in FaSSIF at pH 6.5 incubated for 0.5 hrs by UPLC-UV analysis
Give a bare numeral; the unit µg/mL is implied.

May I ask what solubility at 0.5 h has been recorded for "CN1CCN(c2nc3ncc(C#N)cc3n3cnnc23)CC1" ?
417

###

# studyTarget: Histamine H4 receptor (Homo sapiens, UniProt Q9H3N8)
# Sequence (Q9H3N8 whole entry): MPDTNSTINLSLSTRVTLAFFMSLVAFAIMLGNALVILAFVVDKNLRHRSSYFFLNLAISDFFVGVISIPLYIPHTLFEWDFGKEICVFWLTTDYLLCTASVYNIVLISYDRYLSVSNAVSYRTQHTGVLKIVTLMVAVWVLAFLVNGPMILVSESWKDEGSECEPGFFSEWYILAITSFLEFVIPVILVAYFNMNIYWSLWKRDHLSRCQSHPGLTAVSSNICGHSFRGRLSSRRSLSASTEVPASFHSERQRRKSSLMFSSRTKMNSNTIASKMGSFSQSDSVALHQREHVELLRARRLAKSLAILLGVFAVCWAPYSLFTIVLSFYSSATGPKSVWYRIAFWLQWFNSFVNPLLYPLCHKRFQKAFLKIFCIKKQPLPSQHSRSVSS
# procedureDetails: Antagonist activity at recombinant human histamine H4 receptor expressed in CHO-K1 cells assessed as inhibition of R-alpha-methylhistamine induced stimulation of [35S]-GTPgammaS binding by scintillation proximity assay
# Assay type: functional, cell membranes, Cell membrane
measuredEndpoint: pIC50
Lab note: report pIC50 as minus log10 of the concentration in molar units, number only.

May I ask what pIC50 has been recorded for "CNC1CN(c2nc3ncc(Br)cc3n3nnnc23)C1" ?
7.55

###

# studyTarget: Histamine H3 receptor (Homo sapiens, UniProt Q9Y5N1)
# Sequence (Q9Y5N1 whole entry): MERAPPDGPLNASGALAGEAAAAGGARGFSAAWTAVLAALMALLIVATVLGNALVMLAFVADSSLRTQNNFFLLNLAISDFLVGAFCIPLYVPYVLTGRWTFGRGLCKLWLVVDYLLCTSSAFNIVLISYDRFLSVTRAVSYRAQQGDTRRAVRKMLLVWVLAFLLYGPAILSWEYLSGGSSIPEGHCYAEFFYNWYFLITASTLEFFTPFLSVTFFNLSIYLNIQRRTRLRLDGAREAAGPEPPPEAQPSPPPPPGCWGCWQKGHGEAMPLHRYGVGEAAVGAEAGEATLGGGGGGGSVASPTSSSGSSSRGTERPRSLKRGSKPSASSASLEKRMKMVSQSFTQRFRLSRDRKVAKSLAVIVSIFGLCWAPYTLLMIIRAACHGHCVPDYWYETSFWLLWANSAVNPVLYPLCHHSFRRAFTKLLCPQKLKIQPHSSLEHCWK
# procedureDetails: Displacement of [3H]-N-alpha-methylhistamine from recombinant human histamine H3 receptor expressed in CHO-K1 cell membranes measured after 30 mins by microbeta scintillation counting method
measuredEndpoint: pIC50
Lab note: report pIC50 as minus log10 of the concentration in molar units, number only.

May I ask what pIC50 has been recorded for "Cc1ccc2nc(N3CCN(C)CC3)c3nncn3c2c1" ?
4.82

May I ask what pIC50 has been recorded for "CN1CCN(c2nc3ncc(Br)cc3n3nnnc23)CC1" ?
4.31

May I ask what pIC50 has been recorded for "CN1CCN(c2nc3ncc(C(F)(F)F)cc3n3cnnc23)CC1" ?
4.37

May I ask what pIC50 has been recorded for "CN1CCN(c2nc3ccc(Cl)cc3n3cnnc23)CC1" ?
5.36

May I ask what pIC50 has been recorded for "CN1CCN(c2nc3ncc(Cl)cc3c3ncnn23)CC1" ?
4.12

###

# studyTarget: 5-hydroxytryptamine receptor 3A (Homo sapiens, UniProt P46098)
# Sequence (P46098 whole entry): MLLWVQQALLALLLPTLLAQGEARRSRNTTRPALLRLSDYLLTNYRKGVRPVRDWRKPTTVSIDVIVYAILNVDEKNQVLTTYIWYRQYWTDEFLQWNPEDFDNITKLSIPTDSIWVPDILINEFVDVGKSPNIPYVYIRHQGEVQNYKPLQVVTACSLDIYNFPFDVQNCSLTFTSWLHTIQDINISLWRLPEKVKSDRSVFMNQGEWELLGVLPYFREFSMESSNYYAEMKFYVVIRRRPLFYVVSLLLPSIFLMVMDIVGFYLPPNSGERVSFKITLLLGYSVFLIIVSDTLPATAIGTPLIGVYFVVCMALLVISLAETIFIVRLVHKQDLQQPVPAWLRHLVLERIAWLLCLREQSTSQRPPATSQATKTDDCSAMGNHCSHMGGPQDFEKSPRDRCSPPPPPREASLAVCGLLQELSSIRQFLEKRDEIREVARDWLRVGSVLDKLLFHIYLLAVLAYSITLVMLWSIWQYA
# procedureDetails: Displacement of [3H]BRL 43694 from human recombinant 5-HT3 receptor after 120 mins by scintillation counting analysis
measuredEndpoint: pIC50
Lab note: report pIC50 as minus log10 of the concentration in molar units, number only.

May I ask what pIC50 has been recorded for "CN1CCN(c2nc3ncc(Cl)cc3n3cnnc23)CC1" ?
7.24

###

# procedureDetails: Lipophilicity, logD of the compound at pH 7.4
# Format: physicochemical
# settings: buffer
Parameter: logD. Scope: all listed entries.

[[record]]
recordsmiles = "CN1CCN(c2nc3ccc(Cl)cc3n3cnnc23)CC1"
measuredvalue = 2.12


Lab note: next compound to report on.
May I ask what logD has been recorded for "CN1CCN(c2nc3ncc(Cl)cc3n3cnnc23)CC1" ?
0.95
